Catalogue of pKi readings, one per entry.
Biological target: Solute carrier family 22 member 2 (Rattus norvegicus, UniProt Q9R0W2)
Sequence (Q9R0W2 whole entry): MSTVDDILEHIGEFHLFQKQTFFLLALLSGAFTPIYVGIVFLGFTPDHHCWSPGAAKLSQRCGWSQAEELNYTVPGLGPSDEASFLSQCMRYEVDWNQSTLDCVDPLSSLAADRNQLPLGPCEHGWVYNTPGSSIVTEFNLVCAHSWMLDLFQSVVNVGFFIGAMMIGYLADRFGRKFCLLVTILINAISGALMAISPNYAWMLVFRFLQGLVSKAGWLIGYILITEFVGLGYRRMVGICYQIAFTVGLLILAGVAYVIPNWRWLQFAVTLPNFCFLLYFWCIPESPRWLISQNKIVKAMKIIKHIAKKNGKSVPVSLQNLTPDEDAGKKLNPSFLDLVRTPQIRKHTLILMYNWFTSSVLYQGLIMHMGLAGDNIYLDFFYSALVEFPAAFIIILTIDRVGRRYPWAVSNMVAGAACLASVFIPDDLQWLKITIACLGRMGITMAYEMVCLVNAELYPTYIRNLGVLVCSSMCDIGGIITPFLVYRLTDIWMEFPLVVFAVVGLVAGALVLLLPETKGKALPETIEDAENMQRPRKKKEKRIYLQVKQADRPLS
Assay: TP_TRANSPORTER: inhibition of TEA uptake in OCT2-expressing MDCK cells
Worth noting: pKi values are minus log10 of concentrations stated in mol/L.

Completed entries (count: 2):
[[record]]
molecule = "Cc1ncc(C[n+]2csc(CCO)c2C)c(N)n1"
obs_value = 3.19

[[record]]
molecule = "CNC[C@H](O)c1ccc(O)c(O)c1 [EPINEPHRINE]"
obs_value = 2.92


Query (molecule): CCN(CC)CCNC(=O)c1ccc(N)cc1 [PROCAINAMIDE] ; field requested: pKi
4.44

Query (molecule): `NCCc1c[nH]cn1` ; field requested: pKi
3.77

Query (molecule): N=C(N)NC(=O)c1nc(Cl)c(N)nc1N [AMILORIDE] ; field requested: pKi
5.33

Query (molecule): `NCCc1c[nH]c2ccc(O)cc12` ; field requested: pKi
3.62

Query (molecule): CC(C)N(CCC(C(N)=O)(c1ccccc1)c1ccccn1)C(C)C (stereo not drawn) [DISOPYRAMIDE] ; field requested: pKi
4.52

Query (molecule): `NCCc1ccc(O)c(O)c1` ; field requested: pKi
3.46

----------
molecular target: Solute carrier family 22 member 1 (Rattus norvegicus, UniProt Q63089); test: TP_TRANSPORTER: inhibition of TEA uptake in OCT1-expressing MDCK cells
Sequence (Q63089 whole entry): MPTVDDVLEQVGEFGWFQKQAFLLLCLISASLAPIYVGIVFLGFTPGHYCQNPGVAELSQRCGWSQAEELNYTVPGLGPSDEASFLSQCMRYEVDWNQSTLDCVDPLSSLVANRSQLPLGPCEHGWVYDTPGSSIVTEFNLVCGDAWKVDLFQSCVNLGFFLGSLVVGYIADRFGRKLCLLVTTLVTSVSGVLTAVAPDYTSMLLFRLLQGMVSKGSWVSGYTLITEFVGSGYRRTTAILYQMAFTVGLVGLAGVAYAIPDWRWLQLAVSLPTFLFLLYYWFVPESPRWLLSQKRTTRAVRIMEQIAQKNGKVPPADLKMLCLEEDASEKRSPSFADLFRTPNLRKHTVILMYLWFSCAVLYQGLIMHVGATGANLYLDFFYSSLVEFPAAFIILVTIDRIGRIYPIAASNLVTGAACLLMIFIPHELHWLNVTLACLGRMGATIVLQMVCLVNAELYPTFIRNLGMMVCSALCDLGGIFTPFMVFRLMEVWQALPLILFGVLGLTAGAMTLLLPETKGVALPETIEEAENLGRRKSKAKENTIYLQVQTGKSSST
Rule: Ki below 400 µM gives label 1. Equal to or above 400 µM gives label 0.

# example entries with known answers
[[record]]
compound = "CC(C)N(CCC(C(N)=O)(c1ccccc1)c1ccccn1)C(C)C (configuration not stated) [DISOPYRAMIDE]"
test_target = "Solute carrier family 22 member 1 (Rattus norvegicus, UniProt Q63089)"
cat = "label 1"

[[record]]
compound = "Cc1ncc(C[n+]2csc(CCO)c2C)c(N)n1"
test_target = "Solute carrier family 22 member 1 (Rattus norvegicus, UniProt Q63089)"
cat = "label 0"

[[record]]
compound = "NCCc1c[nH]cn1"
test_target = "Solute carrier family 22 member 1 (Rattus norvegicus, UniProt Q63089)"
cat = "label 1"

[[record]]
compound = "CNC[C@H](O)c1ccc(O)c(O)c1 [EPINEPHRINE]"
test_target = "Solute carrier family 22 member 1 (Rattus norvegicus, UniProt Q63089)"
cat = "label 0"

[[record]]
compound = "N=C(N)NC(=O)c1nc(Cl)c(N)nc1N [AMILORIDE]"
test_target = "Solute carrier family 22 member 1 (Rattus norvegicus, UniProt Q63089)"
cat = "label 1"


Now look at this one.
API: query returns whether the compound falls strictly under 400 µM in Ki. Query: `NCCc1ccc(O)c(O)c1`
label 0

----------
molecular target: Solute carrier family 22 member 2 (Rattus norvegicus)
observable: pIC50
Worth noting: pIC50 values are minus log10 of concentrations stated in mol/L.

Completed entries (count: 5):
[[record]]
compound = "CN(C)CCC(c1ccc(Cl)cc1)c1ccccn1 (stereo not drawn) [CHLORPHENIRAMINE]"
obs_value = 4.59

[[record]]
compound = "CCC[N+](CCC)(CCC)CCC [TETRAPROPYLAMMONIUM]"
obs_value = 4.41

[[record]]
compound = "CCN(CC)CCNC(=O)c1ccc(NC(C)=O)cc1 [ACECAINIDE]"
obs_value = 5.30

[[record]]
compound = "CN(C)CCCN1c2ccccc2CCc2ccccc21 [IMIPRAMINE]"
obs_value = 5.00

[[record]]
compound = "C[N+](C)(C)C [TETRAMETHYLAMMONIUM]"
obs_value = 2.78


Query (compound): CCCC[N+](CCCC)(CCCC)CCCC [TETRABUTHYLAMMONIUM] ; field requested: pIC50
5.24

Query (compound): C[N+](C)(C)CCO [CHOLINE] ; field requested: pIC50
2.84

Query (compound): CCCCC[N+](CCCCC)(CCCCC)CCCCC [TETRAPENTYLAMMONIUM] ; field requested: pIC50
5.77

----------
// endpoint pIC50 / system Solute carrier family 22 member 1 (Rattus norvegicus)
Worth noting: pIC50 values are minus log10 of concentrations stated in mol/L.

[[record]]
compound = "CCCCC[N+](CCCCC)(CCCCC)CCCCC"
test_target = "Solute carrier family 22 member 1 (Rattus norvegicus)"
observable = "pIC50"
obs_value = 5.89

[[record]]
compound = "CCN(CC)CCNC(=O)c1ccc(NC(C)=O)cc1 [ACECAINIDE]"
test_target = "Solute carrier family 22 member 1 (Rattus norvegicus)"
observable = "pIC50"
obs_value = 5.06

[[record]]
compound = "CCCC[N+](CCCC)(CCCC)CCCC"
test_target = "Solute carrier family 22 member 1 (Rattus norvegicus)"
observable = "pIC50"
obs_value = 5.10

[[record]]
compound = "CN(C)CCC(c1ccc(Cl)cc1)c1ccccn1 (configuration not stated)"
test_target = "Solute carrier family 22 member 1 (Rattus norvegicus)"
observable = "pIC50"
obs_value = 4.85

[[record]]
compound = "CN(C)CCCN1c2ccccc2CCc2ccccc21"
test_target = "Solute carrier family 22 member 1 (Rattus norvegicus)"
observable = "pIC50"
obs_value = 4.80

[[record]]
compound = "C[N+](C)(C)CCO"
test_target = "Solute carrier family 22 member 1 (Rattus norvegicus)"
observable = "pIC50"
obs_value = 2.84


Under Solute carrier family 22 member 1 (Rattus norvegicus): pIC50 value of `CCC[N+](CCC)(CCC)CCC` ?
4.64
